test system: BT-549 breast; assay: NCI-60 one-dose screen, 48 h (100 = growth as untreated, 0 = no growth, -100 = all killed); conditions: 10 µM unless noted
Compounds without any hit were thinned out: in the full panel of roughly 83,000, 20% have a hit. The source made the active and inactive calls. The calls were made as follows: active = growth percent below 10; inactive = the rest.
Observation type: growth

- O=C(/C=C/c1ccc(Br)cc1)c1ccc(-n2cc(CN3CCN(c4cc5c(cc4F)c(=O)c(C(=O)O)cn5C4CC4)CC3)nn2)cc1: 81.3% (inactive)
- Cc1ccc(C)c(-n2c(-c3ccc(Br)cc3)csc2=NC(=O)c2ccccc2F)c1: 28.7% (inactive)
- Cc1nn(-c2ccccc2)c(/N=C/N(C)C)c1/C=C/C(=O)c1ccc(Cl)cc1: 87.3% (inactive)
- COc1ccc2cc(Cn3cc[n+](Cc4ccc5ccccc5c4)c3)ccc2c1: 11.8% (inactive)
- Cc1cc2oc(=O)cc(CP(=O)(O)O)c2cc1O: 105% (inactive)
- CCN(CC)c1ccc(/C=N\NC(=O)c2cccc(Nc3ccnc(C(F)(F)F)c3)c2)c(O)c1: 28.8% (inactive)
- C[C@H]1[C@H](C)CC[C@]2(C(=O)O)CC[C@]3(C)C(=CC[C@@H]4[C@@]5(C)C[C@@H](Cc6cn([C@@H]7O[C@H](CO)[C@@H](O)[C@H](O)[C@H]7O)nn6)[C@H](O)C(C)(C)[C@@H]5CC[C@]43C)[C@H]12: 102% (inactive)
- CC1=NN(c2ccc(Cl)cc2)CC1(C)N=O (stereo not drawn): 86.1% (inactive)
